The entries below come with measured apparent KD of K4 kissing-loop reporter values attached.
Test system: K4 kissing-loop RNA reporter;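 also: bound reporter read as fluorescence of individual clusters on recovered sequencing chips by microscopy, with normalized cluster intensities fitted with a binding model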
Method notes: apparent KD of K4 kissing-loop reporter; higher = weaker reporter binding
Test conditions: Eterna round: R107; input ligand: arginine 13.2 mM
Property name: apparent KD of K4 kissing-loop reporter

AGGGUAAGGCGUUAACAUGACACCUGGGAAGGAGCGCGGUACACCGCAGGUAGGUCGCCCAGUGAUGUUGGGCGUAAGUAUGAGU [KL-XArg-A22]: 179 nM
UAGUCAUACAGAGGAUAUCGUAUGAGUGAUGUUCAUACGACAUAAUCGAGUUGUAUCGAUGUUCGACGAGAAGGCUGUAUGACUA [FMN B Ex t1b]: 89.6 nM
GAUGAAGAGUCGUUAGUUAGGGCUUUCGAUACCAGCGCCCGUCCACGCCCUUGGCAGCGAUUGAAAGAGUGAUGUUCUGUCAGGA [theeternabot_exclusion_KL_Theo_A_31]: 309 nM
UUUUAAAUGUCUGAUACCAGAGAAAAUUUAUGUAGUGAUGUUAUAUACAAAAUAAAUAAGCUCCCUUGGCAGCAGUAUUAAUUUU [AstrosExc-TheB#7]: 449 nM
GGCAUAGUCUCAACGUGUGGUUGGGUUGGGAAGGAUAUUUGAUCGAAAAGAAGGUCCCGCAUUGAGUGAUGUUCAAGGGCUCCAA [theeternabot_exclusion_KL_FMN_A_26]: 220 nM
AGUGGUGUAUCUUUUAAGAGUGAUGUUUUUCGAGGACCGGUACGGCCGCCACUCGAGUGAUGAGAGCGUCGUUGUGGUGAUUAGU [#15 K4 Tryptophan A Exclusion]: 582 nM
GGUAGCAUGGCGGCCGCCACUGAGGCCCUAUACGAGUCCUAAACAACCUAGUGAUGUUAGGAGUCCAGGACCGGGCCAUGCUACC: 175 nM
AGACUACCACACUGUCAAUAGACAGUGAACUCGGAUAUGCUGAUAAGCAGAAGGAGUGAUGUUCCCAGGUAGUCAAUAAAAUAAU [FmnAX 13 C32+C66]: 111 nM
GGUAGCAUGAUGGAUACCAGUCCAAAUGGAGUGAUGUUCCAACAACAGGUUAGGCUGCUGGACCCUUGGCAGCCGUCAUGCUACC: 120 nM
GUCCCAGUGAUGUUGGUAGGCGGGCGGGAUACCAGCGGAGACUCACGCCCUUGGCAGCCCACAUAUCCCGCGUAGGGAUUAGCCC [Same State - Theophylline A (Freestyle 23)]: 258 nM
UGGUGCCAUUGGCGGGUAGAUAGUGGUGGCAAGGAUAUGUGAGCGAACAGAAGGUGCAUCAAGUUCAGUGAUGUUGGGCUCGAUU [theeternabot_sameState_KL_FMN_A_20]: 184 nM
AAUGCGCAGGGAAGGAGCGCCGUCCAGUGAUGUUGGAGUUAAAUACCAGUGAUGUUGGUUAGGCAGGUAGGUCGCCCUAAAGCGC [Exclusion Arginine B GF 1]: 79.9 nM
UGGAGUUGACGAAAAGUCAACUCCUGAGAUACCAGUGACGAAAGUCACCCUUGGCAGCUCACUGCCAGUGAUGUUGGAACUAAAG [#02 K4 Theophylline A Same State]: 158 nM
CAUAGACAAGUGAUGUUUGUCAUAACCGAAGGAGCGUCGUUGAAGACAGGUAGGUCGCGGAUUAAUUUAGAUUAUAUUCUUUUUA [JR_SSArginiA_Sub020]: 462 nM
UAUAUAGUGACGGCCGCCACUAUAUUAAUGUUUUUGUUAGAGUGAUGUUUUGUUUAAUAUUUUUAUAGGACCGGGUUAUAUGUUA [zsqqxmullin]: 338 nM
